- test_name: In vivo PK after single p.o. and i.v. dosing in CD-1 mice
- Design: species or system female CD-1 mice
- details: female, mouse, plasma; single oral dose 25 mg/kg, CD-1 mice; read-out: t1/2 (oral) (converted)
observable: half-life (h)
Answers are plain numbers, in h.

Please give the documented half-life of C[C@H]1Cc2c([nH]c3cc(Cl)c(F)cc23)[C@@]2(N1)C(=O)Nc1ccc(Cl)cc12 [(+)-7 (KAE609)]
10

---

- test_name: RBC to plasma partitioning
- Assay type: in vitro ADME
- details: mean from 1 µM & 10 µM
The label depends only on RBC to Plasma Ratio: MET if it is at least 0.9, NOT MET if it is smaller.

> print(dat)
                                   compound  qualitative.label
1  C[C@@H]1Cc2c([nH]c3cc(Cl)c(F)cc23)[C@]2(N1)C(=O)Nc1ccc(Cl)cc12 [(−)-7]            NOT MET
2  C[C@H]1Cc2c([nH]c3ccc(F)cc23)[C@@]2(N1)C(=O)Nc1ccc(Cl)cc12 [(+)-4]            NOT MET
3  C[C@H]1Cc2c([nH]c3cc(F)ccc23)[C@@]2(N1)C(=O)Nc1ccc(Cl)cc12 [(+)-5]                MET

Does RBC to Plasma Ratio meet or surpass 0.9 for C[C@H]1Cc2c([nH]c3cc(Cl)ccc23)[C@@]2(N1)C(=O)Nc1ccc(Cl)cc12 [(+)-3] ?
MET

Does RBC to Plasma Ratio meet or surpass 0.9 for C[C@@H]1Cc2c([nH]c3cc(F)c(F)cc23)[C@]2(N1)C(=O)Nc1ccc(Cl)cc12 [(−)-6] ?
NOT MET

---

- test_name: In vivo PK after single p.o. and i.v. dosing in CD-1 mice
- Set-up: species or system female CD-1 mice
- details: single oral dose 25 mg/kg, CD-1 mice, plasma
observable: Cmax (ng/mL)
Answers are plain numbers, in ng/mL.

Some compounds with recorded Cmax:
> print(dat)
                                   compound  recorded.measurement
1  C[C@H]1Cc2c([nH]c3ccc(F)cc23)[C@@]2(N1)C(=O)Nc1ccc(Cl)cc12 [(+)-4]                  1000
2  C[C@H]1Cc2c([nH]c3cc(F)c(F)cc23)[C@@]2(N1)C(=O)Nc1ccc(Cl)cc12 [(+)-6]                  3100
3  C[C@H]1Cc2c([nH]c3cc(Cl)ccc23)[C@@]2(N1)C(=O)Nc1ccc(Cl)cc12 [(+)-3]                   700

Here is the next item to consider.
Please give the documented Cmax of C[C@H]1Cc2c([nH]c3ccc(Cl)cc23)[C@@]2(N1)C(=O)Nc1ccc(Cl)cc12 [(+)-2]
600
